These data points were gathered from paper PMC7256847.

# TARGET: alanine racemase (SiAlr) (Streptococcus iniae)
# Sequence (A0A3L8GG59 1-368): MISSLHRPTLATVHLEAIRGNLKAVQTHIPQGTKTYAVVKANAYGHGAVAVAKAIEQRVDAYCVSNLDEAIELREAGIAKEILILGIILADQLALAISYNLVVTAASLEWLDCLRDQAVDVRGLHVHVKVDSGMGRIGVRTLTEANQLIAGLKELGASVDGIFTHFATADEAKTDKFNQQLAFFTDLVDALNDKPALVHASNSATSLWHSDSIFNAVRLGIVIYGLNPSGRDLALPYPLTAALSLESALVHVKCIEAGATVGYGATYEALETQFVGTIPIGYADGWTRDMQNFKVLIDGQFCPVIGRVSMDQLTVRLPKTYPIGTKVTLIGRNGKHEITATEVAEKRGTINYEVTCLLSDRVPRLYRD
# EXPERIMENT: enzyme inhibition assay with purified recombinant SiAlr
# Assay type: biochemical
MEASURED_QUANTITY: IC50 (µM)

{"COMPOUND": "O=C(O)Cc1cc(O)ccc1O", "TARGET": "alanine racemase (SiAlr) (Streptococcus iniae)", "SCALE_UNIT": "µM", "IC50": 12.3}
{"COMPOUND": "Oc1ccc(O)cc1 [hydroquinone]", "TARGET": "alanine racemase (SiAlr) (Streptococcus iniae)", "SCALE_UNIT": "µM", "IC50": 11.4}
